assay: Pharmacokinetic evaluation in SD rats; assay type: in vivo; settings: rat, plasma; SD rats, po, 5 mg/kg
Readout Type: MRT inf (h)

Compound	Observed
N#Cc1cc(-c2ccc(C(=O)O)c(O)c2)c2ccccc2c1 [Example 2]	1.5
N#Cc1cc(-c2ccc(C(=O)O)c(O)c2)c2oc(Cl)cc2c1 [Example 40]	4.95
N#Cc1cc(-c2ccc(C(=O)O)c(O)c2)c2oc(F)cc2c1 [Example 29]	3.8
N#Cc1cc(-c2ccc(C(=O)O)c(O)c2)c2occc2c1 [Example 1]	5.98
